target: HLA-B*07:02; experiment: IEDB peptide-MHC binding, purified MHC/direct/fluorescence; filed as Kd, often an IC50 or EC50 that approximates it; bounds were set here for any values at or beyond the usual limits of such assays; conditions: source organism: Corynebacterium glutamicum
observable: pKd
Notebook: values listed as pKd are -log10 of the concentration (mol/L).

IVAWTRTAT 7.27

Shifting focus to the sequence that follows.
What value of pKd has been reported for the following sequence? `AEHDPWWAV` 5.05

---

biological target: HLA-A*31:01; experiment: IEDB peptide-MHC binding, purified MHC/competitive/fluorescence; filed as Kd, often an IC50 or EC50 that approximates it; bounds were set here for any values at or beyond the usual limits of such assays; details: source organism: Corynebacterium glutamicum R
observable: Kd

What value of Kd has been reported for the following sequence? `RYDDGQSIY` ≥ 20 µM
